Target or test system: Sumo-ELL2(519-640) (human, UniProt O00472 519-640)
Sequence (O00472 519-640): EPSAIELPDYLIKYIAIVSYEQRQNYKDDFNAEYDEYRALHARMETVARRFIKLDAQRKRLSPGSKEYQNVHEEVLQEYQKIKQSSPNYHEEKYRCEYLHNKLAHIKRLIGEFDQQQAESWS
Experiment notes: fluorescence polarisation
Measurement name: pKd
Please note pKd is a logarithmic value: minus log10 of concentration in mol/L. Answer with that number alone.

Prompt line: For His6-tagged wild-type AFF4^ELLBow (AFF4 301-351) (peptide) PSQPLDASASGDVSCVDEILKEMTHSWPPPLTAIHTPCKTEPSKFPFPTKE , write its pKd.
Response line: 7.07
